Origin of values: patent US20250346600A1

Target: Full length WRN protein (aa 2-1432) (Homo sapiens (Human))
Assay: WRN ATPase ADP-Glo biochemical assay, Assay Format A (10 μM ATP)
Conditions: 0.25 nM WRN, 100 nM C6.18 ssDNA, 30 min preincubation, read-out: ATPase ADPGlo AC50 (uM)- Assay Format A
experimental_endpoint: AC50

Worked set:
## Task Output AC50 of C=CC(=O)N1CCc2nn(-c3ccc(C45CC(C4)C5)cc3F)c3c2C(C1)N(C(=O)c1ccc(Br)c2[nH]cnc12)CC3 (stereo not shown)
## Result < 0.0015 µM

## Task Provide measured AC50 value, entry: C=CC(=O)N1CCc2nn(-c3ccc(C4CC4)cc3)c3c2C(C1)N(C(=O)c1csc(S(N)(=O)=O)c1)CC3 (stereo not shown)
## Result > 0.055 µM

## Task Respond only with AC50 recorded for C=CC(=O)N1CCc2nn(-c3ccc(C4CC4)cc3)c3c2C(C1)N(C(=O)c1ccc(C(F)F)nc1)CC3 (stereo not shown)
## Result 0.005 to 0.015 µM

## Task Return AC50 (reported value) for this molecule: C=CC(=O)N1CCc2nn(-c3ccc(C(C)C)cc3)c3c2C(C1)N(C(=O)c1cnc(C(F)(F)F)c(OC)c1)CC3 (stereo not shown)
## Result < 0.0015 µM

## Task Output measured AC50 for this item: C=CC(=O)N1CCc2nn(-c3ccc(C4CC4)cc3O)c3c2C(C1)N(C(=O)c1ccc(C(F)(F)F)cc1N)CC3 (stereo not shown)
## Result < 0.0015 µM

---
## Task Dear colleague, please send me the reported AC50 for C=CC(=O)N1CCc2nn(-c3ccc(C4CC4)cc3O)c3c2C(C1)N(C(=O)c1ccc(Cl)nc1N)CC3 (stereo not shown) when you can.
## Result < 0.0015 µM

## Task Provide only the value of recorded AC50 for Nc1cc(C(F)(F)F)ncc1C(=O)N1CCc2c3c(nn2-c2ccc(C4CCC4)cc2)CCN(C(=O)/C=C\Cl)CC31 (stereo not shown)
## Result 0.0015 to 0.005 µM

###

This section presents compounds with their documented AC50 values.
Biological target: Full length WRN protein (aa 2-1432) (Homo sapiens (Human), UniProt Q14191)
Sequence (Q14191 2-1432): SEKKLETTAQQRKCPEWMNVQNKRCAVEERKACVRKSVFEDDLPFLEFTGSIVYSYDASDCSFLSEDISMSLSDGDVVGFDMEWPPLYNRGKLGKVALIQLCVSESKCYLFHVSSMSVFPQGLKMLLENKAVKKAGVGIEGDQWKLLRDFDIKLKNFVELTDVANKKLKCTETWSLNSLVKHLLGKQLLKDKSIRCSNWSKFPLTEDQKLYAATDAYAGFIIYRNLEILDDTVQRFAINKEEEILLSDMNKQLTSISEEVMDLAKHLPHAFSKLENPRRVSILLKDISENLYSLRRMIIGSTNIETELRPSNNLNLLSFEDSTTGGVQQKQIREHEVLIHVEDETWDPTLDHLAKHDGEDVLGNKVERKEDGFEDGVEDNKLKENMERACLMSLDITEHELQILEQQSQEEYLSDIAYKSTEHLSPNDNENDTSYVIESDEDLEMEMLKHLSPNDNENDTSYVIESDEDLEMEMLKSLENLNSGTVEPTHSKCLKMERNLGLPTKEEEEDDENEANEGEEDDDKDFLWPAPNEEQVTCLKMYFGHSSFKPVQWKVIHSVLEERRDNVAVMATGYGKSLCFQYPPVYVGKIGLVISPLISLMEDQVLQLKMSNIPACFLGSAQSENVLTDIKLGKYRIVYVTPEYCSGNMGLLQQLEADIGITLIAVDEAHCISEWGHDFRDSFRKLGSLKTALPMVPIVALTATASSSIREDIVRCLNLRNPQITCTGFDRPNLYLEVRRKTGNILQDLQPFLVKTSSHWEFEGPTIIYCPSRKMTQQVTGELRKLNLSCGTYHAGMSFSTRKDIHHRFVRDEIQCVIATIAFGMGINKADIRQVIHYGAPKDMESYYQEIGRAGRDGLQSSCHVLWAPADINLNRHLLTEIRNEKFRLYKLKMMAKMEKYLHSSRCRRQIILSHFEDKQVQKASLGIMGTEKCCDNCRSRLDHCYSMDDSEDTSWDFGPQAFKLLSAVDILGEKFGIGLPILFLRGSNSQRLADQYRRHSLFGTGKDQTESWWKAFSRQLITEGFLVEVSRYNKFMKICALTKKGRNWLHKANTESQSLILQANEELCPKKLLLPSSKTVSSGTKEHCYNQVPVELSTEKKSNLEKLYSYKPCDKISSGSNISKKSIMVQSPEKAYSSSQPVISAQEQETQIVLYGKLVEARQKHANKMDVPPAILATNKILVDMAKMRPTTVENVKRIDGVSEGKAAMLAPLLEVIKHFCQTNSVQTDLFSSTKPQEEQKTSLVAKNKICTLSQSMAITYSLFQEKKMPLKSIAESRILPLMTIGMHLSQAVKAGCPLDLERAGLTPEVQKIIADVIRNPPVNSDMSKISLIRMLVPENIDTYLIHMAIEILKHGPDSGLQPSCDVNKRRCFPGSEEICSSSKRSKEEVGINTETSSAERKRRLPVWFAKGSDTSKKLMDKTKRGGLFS
Experiment: WRN ATPase ADP-Glo biochemical assay, Assay Format B (100 μM ATP)
Conditions: 0.25 nM WRN, 100 nM C6.18 ssDNA, 60 min preincubation, read-out: ATPase ADPGlo AC50 (uM)- Assay Format B

Below: 3 compounds and their reported AC50.
## Task # return AC50 of C=CC(=O)N1CCOc2nn(-c3ccc(C(C)C)cc3)c3c2C(C1)N(C(=O)c1cnc(C(F)(F)F)c(O)c1)CC3 (stereo not shown) (system: Full length WRN protein (aa 2-1432) (Homo sapiens (Human), UniProt Q14191))
## Result > 0.055 µM

## Task Quote AC50 with test system Full length WRN protein (aa 2-1432) (Homo sapiens (Human), UniProt Q14191) for C=CC(=O)N1CCOc2nn(-c3ccc(C(C)C)cc3O)c3c2C(C1)N(C(=O)c1cnc(C(F)(F)F)c(O)c1)CC3 (stereo not shown)
## Result 0.015 to 0.055 µM

## Task Would you please give the reported AC50 of C=CC(=O)N1CCc2nn(-c3ccc(C4CCC4)cc3O)c3c2C(C1)N(C(=O)c1ccc(Br)c2[nH]cnc12)CC3 (stereo not shown) with Full length WRN protein (aa 2-1432) (Homo sapiens (Human), UniProt Q14191)?
## Result 0.0015 to 0.005 µM

Moving on to the next compound.
## Task State the measured AC50 (Full length WRN protein (aa 2-1432) (Homo sapiens (Human), UniProt Q14191)) of C=CC(=O)N1CCc2nn(-c3ccc(C4CC4)cc3O)c3c2C(C1)N(C(=O)c1nnc(C(F)(F)F)cc1N)CC3 (stereo not shown)
## Result 0.0015 to 0.005 µM

###

Target: Full length WRN protein (aa 2-1432) (Homo sapiens (Human))
Experiment: WRN ATPase ADP-Glo biochemical assay, Assay Format B (100 μM ATP)
Details: 0.25 nM WRN, 100 nM C6.18 ssDNA, 60 min preincubation, read-out: ATPase ADPGlo AC50 (uM)- Assay Format B
experimental_endpoint: AC50

## Task State its AC50: C=CC(=O)N1CCc2nn(-c3ccc(C4CCC4)cc3O)c3c2C(C1)N(C(=O)c1cnc(OC(F)F)cc1N)CC3 (centres unmarked) [Compound 164]
## Result 0.0015 to 0.005 µM

## Task Look up and report measured AC50 for this entry: C=CC(=O)N1CCc2nn(-c3ccc(C4CCC4)c(O)c3)c3c2C(C1)N(C(=O)c1cnc(C(F)(F)F)c(O)c1)CC3 (centres unmarked) [Compound 91]
## Result 0.005 to 0.015 µM

## Task Report measured AC50; entry is C=CC(=O)N1CCc2nn(-c3ccc(C4CCC4)cc3O)c3c2C(C1)N(C(=O)c1cnc(Br)cc1N)CC3 (centres unmarked) [Compound 132]
## Result 0.0015 to 0.005 µM

## Task Quick one: give measured AC50 for C=CC(=O)N1CCc2nn(-c3ccc(C(C)C)cc3)c3c2C(C1)N(C(=O)c1cnc(C(F)(F)F)cc1N)CC3 (centres unmarked) [Compound 150]
## Result 0.005 to 0.015 µM

Now turn to the next molecule.
## Task For the molecule C=CC(=O)N1CCc2nn(-c3ccc(C4CC4)cc3)c3c2C(C1)N(C(=O)c1c(N)cc(C(F)(F)F)nc1N)CC3 (centres unmarked) [Compound 186] , give its measured AC50 value.
## Result 0.005 to 0.015 µM

###

# AC50 listing for each entry below
Molecular target: Full length WRN protein (aa 2-1432) (Homo sapiens (Human), UniProt Q14191)
Experiment: WRN ATPase ADP-Glo biochemical assay, Assay Format B (100 μM ATP)
Conditions: 0.25 nM WRN, 100 nM C6.18 ssDNA, 60 min preincubation, read-out: ATPase ADPGlo AC50 (uM)- Assay Format B

## Task Consider the compound C=CC(=O)N1CCc2nn(-c3ccc(C4CC4)cc3O)c3c2C(C1)N(C(=O)c1cnc(SC(F)(F)F)cc1N)CC3 (centres unmarked) . State its measured AC50.
## Result 0.0015 to 0.005 µM

Continue with the compound presented below.
## Task Quick one: give measured AC50 for C=CC(=O)N1CCc2nn(-c3ccc(C4CC4)cc3O)c3c2C(C1C)N(C(=O)c1cnc(C(F)(F)F)cc1N)CC3 (centres unmarked)
## Result 0.005 to 0.015 µM

###

Biological target: Full length WRN protein (aa 2-1432) (Homo sapiens (Human))
Test: WRN ATPase ADP-Glo biochemical assay, Assay Format B (100 μM ATP)
Conditions: 0.25 nM WRN, 100 nM C6.18 ssDNA, 60 min preincubation, read-out: ATPase ADPGlo AC50 (uM)- Assay Format B
experimental_endpoint: AC50

// known answers, use as guide
## Task Fill in: AC50 on Full length WRN protein (aa 2-1432) (Homo sapiens (Human)), entry C=CC(=O)N1CCOc2nn(-c3ccc(C4CC4)cc3C)c3c2C(C1)N(C(=O)c1ccc(Br)c2[nH]cnc12)CC3 (stereo not drawn)
## Result 0.015 to 0.055 µM

## Task Quote Full length WRN protein (aa 2-1432) (Homo sapiens (Human)) AC50 for entry C=CC(=O)N1CC(C)c2nn(-c3ccc(C(C)C)cc3)c3c2C(C1)N(C(=O)c1ccc(Br)c2[nH]cnc12)CC3 (stereo not drawn) [Compound 34] .
## Result 0.005 to 0.015 µM

## Task Check Full length WRN protein (aa 2-1432) (Homo sapiens (Human)) data and give AC50 for C=CC(=O)N1CCc2nn(-c3ccc(C4CC4)cc3O)c3c2C(C1)N(C(=O)c1cnc(C(F)(F)F)nc1N)CC3 (stereo not drawn) .
## Result 0.005 to 0.015 µM

***
## Task Write down the reported AC50 (system: Full length WRN protein (aa 2-1432) (Homo sapiens (Human))) of C=CC(=O)N1CCc2nn(-c3ccc(C(C)C)cc3O)c3c2C(C1)N(C(=O)c1cnc(C(F)(F)F)c2[nH]ncc12)CC3 (stereo not drawn)
## Result 0.0015 to 0.005 µM

## Task Enter measured AC50, system Full length WRN protein (aa 2-1432) (Homo sapiens (Human)), for the molecule shown: C=CC(=O)N1CCc2nn(-c3ccc(C4CCC4)cc3C)c3c2C(C1)N(C(=O)c1cnc(C(F)(F)F)cc1N)CC3 (stereo not drawn)
## Result 0.0015 to 0.005 µM

## Task With Full length WRN protein (aa 2-1432) (Homo sapiens (Human)) as the test system, provide measured AC50 for this molecule: C=CC(=O)N1CCc2nn(-c3ccc(C4CCC4)cc3O)c3c2C(C1)N(C(=O)c1ccc(C(F)(F)F)c2[nH]ncc12)CC3 (stereo not drawn)
## Result 0.005 to 0.015 µM
